- Test system: 422866-222-R5-J1-PDC spheroids with HUVEC/MSC, viability;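 also: spheroids exposed to compounds for seven days before reading; percent viability relative to DMSO vehicle control taken as 100%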
- ASSAY INFO: Anticancer human tumor 422866-222-R5-J1-PDC patient-derived pancreatic adenocarcinoma cell line growth inhibition [GQUAD]
- TEST CONTEXT: second compound 0.1 µM; first compound 0.316 µM; hits give low values
READOUT NAME: viability, T/C (%)
Dear colleague, please return just the value in %, with no unit written.

Briefly, viability, T/C measured for O=c1[nH]cc(F)c(=O)[nH]1 + Cc1cnc(CNC(=O)c2c(=O)c3ccc(N4CCCN(C)CC4)nc3n3c2sc2ccccc23)cn1 : 89.4

Briefly, viability, T/C measured for Cn1ncnc1[C@H]1c2n[nH]c(=O)c3cc(F)cc(c23)N[C@@H]1c1ccc(F)cc1 + Cc1cnc(CNC(=O)c2c(=O)c3ccc(N4CCCN(C)CC4)nc3n3c2sc2ccccc23)cn1 : 71.8

Briefly, viability, T/C measured for Cc1cccc(N(C)C(=O)C2C(O)CCN2c2nc(C)cc(C(F)(F)F)c2C#N)c1 (stereo not given) + CN(C)c1ccc(Nc2c3ccc(NC(=O)CCN4CCCC4)cc3nc3cc(NC(=O)CCN4CCCC4)ccc23)cc1 : 105

Briefly, viability, T/C measured for CC1COCCN1c1cc(C2(S(C)(=N)=O)CC2)nc(-c2ccnc3[nH]ccc23)n1 (stereo not given) + CN(C)c1ccc(Nc2c3ccc(NC(=O)CCN4CCCC4)cc3nc3cc(NC(=O)CCN4CCCC4)ccc23)cc1 : 102

Briefly, viability, T/C measured for COc1cccc2c1C(=O)c1c(O)c3c(c(O)c1C2=O)CC(O)(C(=O)CO)CC3OC1CC(N)C(O)C(C)O1 (stereo not given) + CN(C)c1ccc(Nc2c3ccc(NC(=O)CCN4CCCC4)cc3nc3cc(NC(=O)CCN4CCCC4)ccc23)cc1 : 56.8

Reference for the values: PubChem BioAssay AID2060511
